Target: HSA (Homo sapiens)
Assay: Kd[HSA] from SST2 saturation binding in presence of HSA, nonlinear regression with model of Blakeley et al.
Conditions: [HSA] 20 μM, read-out: Kd[HSA] derived from saturation binding
Excerpt: Blakeley et al. developed a mathematical model that includes radioligand, protein (herein HSA), and target receptor (herein SST2) to derive the K d[HSA] value of the radioligand from saturation binding experiments to the target receptor in the presence of HSA. The authors specified an explicit mathematical solution for their proposed cubic equation and provided this solution also in a practical format for GraphPad Prism, which allows the analysis of experimental data but also simulations.
pKd: −log10 of the molar value.

{"columns": ["compound", "pKd"],
 "data": [
  ["C[C@@H](O)[C@H](NC(=O)[C@@H]1CSSC[C@H](NC(=O)[C@@H](Cc2ccccc2)NC(=O)CC[C@H](C(=O)O)N2CCN(CC(=O)O)CCN(CC(=O)O)CC2)C(=O)N[C@@H](Cc2ccc(O)cc2)C(=O)N[C@H](Cc2c[nH]c3ccccc23)C(=O)N[C@@H](CCCCN)C(=O)N[C@@H]([C@@H](C)O)C(=O)N1)C(=O)O [[64Cu]Cu-NODAGA-TATE, metal not drawn]", 5.41],
  ["C[C@@H](O)[C@H](NC(=O)[C@@H]1CSSC[C@H](NC(=O)[C@@H](Cc2ccccc2)NC(=O)COCCOCCNC(=O)[C@H](Cc2cn(-c3ccc(C(=O)N[C@@H](CCCCNC(=O)CCCc4ccc(I)cc4)C(=O)O)cc3)nn2)NC(=O)CC[C@H](C(=O)O)N2CCN(CC(=O)O)CCN(CC(=O)O)CC2)C(=O)N[C@@H](Cc2ccc(O)cc2)C(=O)N[C@H](Cc2c[nH]c3ccccc23)C(=O)N[C@@H](CCCCN)C(=O)N[C@@H]([C@@H](C)O)C(=O)N1)C(=O)O [[64Cu]Cu-NODAGA-cLAB2-TATE, metal not drawn]", 5.51]
]}

* * *

Target: human serum albumin (HSA) (Homo sapiens, UniProt P02768)
Assay: Radiometric ultrafiltration assay for binding to HSA

{"columns": ["molecule", "system tested", "Kd [µM]"],
 "data": [
  ["C[C@@H](O)[C@H](NC(=O)[C@@H]1CSSC[C@H](NC(=O)[C@@H](Cc2ccccc2)NC(=O)COCCOCCNC(=O)[C@H](Cc2cn(-c3ccc(C(=O)N[C@@H](CCCCNC(=O)CCCc4ccc(F)cc4)C(N)=O)cc3)nn2)NC(=O)CC[C@H](C(=O)O)N2CCN(CC(=O)O)CCN(CC(=O)O)CC2)C(=O)N[C@@H](Cc2ccc(O)cc2)C(=O)N[C@H](Cc2c[nH]c3ccccc23)C(=O)N[C@@H](CCCCN)C(=O)N[C@@H]([C@@H](C)O)C(=O)N1)C(=O)O [[64Cu]Cu-NODAGA-cLAB5-TATE, metal not drawn]", "human serum albumin (HSA) (Homo sapiens, UniProt P02768)", 440]
]}

* * *

Test: Plasma stability assay, mouse plasma
Type: in vitro ADME
Settings: 37 °C, up to 24 h, single experiment, read-out: t1/2 (plasma), mouse
endpoint label: half-life

{"columns": ["molecule", "endpoint label", "measured result"],
 "data": [
  ["C[C@@H](O)[C@H](NC(=O)[C@@H]1CSSC[C@H](NC(=O)[C@@H](Cc2ccccc2)NC(=O)COCCOCCNC(=O)[C@H](Cc2cn(-c3ccc(C(=O)N[C@@H](CCCCNC(=O)CCCc4ccc(F)cc4)C(N)=O)cc3)nn2)NC(=O)CC[C@H](C(=O)O)N2CCN(CC(=O)O)CCN(CC(=O)O)CC2)C(=O)N[C@@H](Cc2ccc(O)cc2)C(=O)N[C@H](Cc2c[nH]c3ccccc23)C(=O)N[C@@H](CCCCN)C(=O)N[C@@H]([C@@H](C)O)C(=O)N1)C(=O)O [[64Cu]Cu-NODAGA-cLAB5-TATE, metal not drawn]", "half-life", "~13 h"]
]}

* * *

Test: Small-animal PET imaging in subcutaneous MPC tumor allograft model
Details: female, NMRI-nu/nu (Rj:NMRI-Foxn1nu/nu), mouse, tumor, iv, total radioactivity

{"columns": ["molecule", "SUV at 24 h"],
 "data": [
  ["C[C@@H](O)[C@H](NC(=O)[C@@H]1CSSC[C@H](NC(=O)[C@@H](Cc2ccccc2)NC(=O)COCCOCCNC(=O)[C@H](Cc2cn(-c3ccc(C(=O)N[C@@H](CCCCNC(=O)CCCc4ccc(F)cc4)C(N)=O)cc3)nn2)NC(=O)CC[C@H](C(=O)O)N2CCN(CC(=O)O)CCN(CC(=O)O)CC2)C(=O)N[C@@H](Cc2ccc(O)cc2)C(=O)N[C@H](Cc2c[nH]c3ccccc23)C(=O)N[C@@H](CCCCN)C(=O)N[C@@H]([C@@H](C)O)C(=O)N1)C(=O)O [[64Cu]Cu-NODAGA-cLAB5-TATE, metal not drawn]", "2.3 SUV"]
]}

* * *

Target: HSA (Homo sapiens, UniProt P02768)
Sequence (P02768 25-609): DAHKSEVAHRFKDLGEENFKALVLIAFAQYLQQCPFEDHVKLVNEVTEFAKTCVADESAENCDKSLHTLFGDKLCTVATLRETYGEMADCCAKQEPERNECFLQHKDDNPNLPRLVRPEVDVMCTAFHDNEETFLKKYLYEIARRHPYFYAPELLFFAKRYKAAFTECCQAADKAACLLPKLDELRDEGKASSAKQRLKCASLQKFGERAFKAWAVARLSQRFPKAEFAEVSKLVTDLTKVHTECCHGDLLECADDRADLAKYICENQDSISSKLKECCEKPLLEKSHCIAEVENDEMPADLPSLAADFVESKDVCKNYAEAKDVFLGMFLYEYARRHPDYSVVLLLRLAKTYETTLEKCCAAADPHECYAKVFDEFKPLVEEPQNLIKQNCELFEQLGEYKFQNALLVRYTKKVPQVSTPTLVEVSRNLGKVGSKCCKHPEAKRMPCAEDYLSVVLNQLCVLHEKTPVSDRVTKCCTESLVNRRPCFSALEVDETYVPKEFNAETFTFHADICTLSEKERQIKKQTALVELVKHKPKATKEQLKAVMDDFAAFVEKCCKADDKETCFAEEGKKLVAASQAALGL
Assay: Kd[HSA] from SST2 saturation binding in presence of HSA, nonlinear regression with model of Blakeley et al.
Settings: [HSA] 1 μM, read-out: Kd[HSA] derived from saturation binding
pKd: −log10 of the molar value.

{"columns": ["molecule", "pKd"],
 "data": [
  ["C[C@@H](O)[C@H](NC(=O)[C@@H]1CSSC[C@H](NC(=O)[C@@H](Cc2ccccc2)NC(=O)CC[C@H](C(=O)O)N2CCN(CC(=O)O)CCN(CC(=O)O)CC2)C(=O)N[C@@H](Cc2ccc(O)cc2)C(=O)N[C@H](Cc2c[nH]c3ccccc23)C(=O)N[C@@H](CCCCN)C(=O)N[C@@H]([C@@H](C)O)C(=O)N1)C(=O)O [[64Cu]Cu-NODAGA-TATE, metal not drawn]", 5.25]
]}

* * *

Experiment: in vivo
Details: female, NMRI-nu/nu (Rj:NMRI-Foxn1nu/nu), mouse, iv, total radioactivity

{"columns": ["molecule", "SUV at 24 h"],
 "data": [
  ["Cc1cc(-c2ccc(NC(=O)[C@H](CCCCNC(=O)CCN3C(=O)CC(SCCC(=O)N[C@H](Cc4ccccc4)C(=O)N[C@H]4CSSC[C@@H](C(=O)N[C@H](C(=O)O)[C@@H](C)O)NC(=O)[C@H]([C@@H](C)O)NC(=O)[C@H](CCCCN)NC(=O)[C@@H](Cc5c[nH]c6ccccc56)NC(=O)[C@H](Cc5ccc(O)cc5)NC4=O)C3=O)NC(=O)CN3CCN(CC(=O)O)CCN(CC(=O)O)CCN(CC(=O)O)CC3)c(C)c2)ccc1/N=N/c1ccc2c(S(=O)(=O)O)cc(S(=O)(=O)O)c(N)c2c1O (stereo partly shown) [[64Cu]Cu-DOTA-EB-TATE, metal not drawn]", "6 SUV"]
]}

* * *

Molecular target: HSA (Homo sapiens)
Assay: Kd[HSA] from SST2 saturation binding in presence of HSA, nonlinear regression with model of Blakeley et al.
Conditions: [HSA] 100 μM, read-out: Kd[HSA] derived from saturation binding

{"columns": ["molecule", "system tested", "Kd [µM]"],
 "data": [
  ["C[C@@H](O)[C@H](NC(=O)[C@@H]1CSSC[C@H](NC(=O)[C@@H](Cc2ccccc2)NC(=O)CC[C@H](C(=O)O)N2CCN(CC(=O)O)CCN(CC(=O)O)CC2)C(=O)N[C@@H](Cc2ccc(O)cc2)C(=O)N[C@H](Cc2c[nH]c3ccccc23)C(=O)N[C@@H](CCCCN)C(=O)N[C@@H]([C@@H](C)O)C(=O)N1)C(=O)O [[64Cu]Cu-NODAGA-TATE, metal not drawn]", "HSA (Homo sapiens)", 108],
  ["C[C@@H](O)[C@H](NC(=O)[C@@H]1CSSC[C@H](NC(=O)[C@@H](Cc2ccccc2)NC(=O)COCCOCCNC(=O)[C@H](Cc2cn(-c3ccc(C(=O)N[C@@H](CCCCNC(=O)CCCc4ccc(I)cc4)C(=O)O)cc3)nn2)NC(=O)CC[C@H](C(=O)O)N2CCN(CC(=O)O)CCN(CC(=O)O)CC2)C(=O)N[C@@H](Cc2ccc(O)cc2)C(=O)N[C@H](Cc2c[nH]c3ccccc23)C(=O)N[C@@H](CCCCN)C(=O)N[C@@H]([C@@H](C)O)C(=O)N1)C(=O)O [[64Cu]Cu-NODAGA-cLAB2-TATE, metal not drawn]", "HSA (Homo sapiens)", 6.12]
]}

* * *

Assay: Small-animal PET imaging in subcutaneous MPC tumor allograft model
Conditions: female, NMRI-nu/nu (Rj:NMRI-Foxn1nu/nu), mouse, tumor, iv, total radioactivity
endpoint label: SUV (SUV)

{"columns": ["compound", "endpoint label", "quantity unit", "measured result"],
 "data": [
  ["C[C@@H](O)[C@H](NC(=O)[C@@H]1CSSC[C@H](NC(=O)[C@@H](Cc2ccccc2)NC(=O)COCCOCCNC(=O)[C@H](Cc2cn(-c3ccc(C(=O)N[C@@H](CCCCNC(=O)CCCc4ccc(F)cc4)C(N)=O)cc3)nn2)NC(=O)CC[C@H](C(=O)O)N2CCN(CC(=O)O)CCN(CC(=O)O)CC2)C(=O)N[C@@H](Cc2ccc(O)cc2)C(=O)N[C@H](Cc2c[nH]c3ccccc23)C(=O)N[C@@H](CCCCN)C(=O)N[C@@H]([C@@H](C)O)C(=O)N1)C(=O)O [[64Cu]Cu-NODAGA-cLAB5-TATE, metal not drawn]", "SUV", "SUV", 8.9]
]}
